molecular target: T1, alphaEbeta7 on alphaEbeta7-transfected 293 cells (human, UniProt P38570 19-1179; P26010 20-798); assay: cell adhesion inhibition, alphaEbeta7 293 cells on coated huE-Cadherin, experiment 3 of 3
T1 construct: whole, on cells; also called alphaEbeta7 293 cells
T1 sequence (P38570 19-1179, chain 1 of 2): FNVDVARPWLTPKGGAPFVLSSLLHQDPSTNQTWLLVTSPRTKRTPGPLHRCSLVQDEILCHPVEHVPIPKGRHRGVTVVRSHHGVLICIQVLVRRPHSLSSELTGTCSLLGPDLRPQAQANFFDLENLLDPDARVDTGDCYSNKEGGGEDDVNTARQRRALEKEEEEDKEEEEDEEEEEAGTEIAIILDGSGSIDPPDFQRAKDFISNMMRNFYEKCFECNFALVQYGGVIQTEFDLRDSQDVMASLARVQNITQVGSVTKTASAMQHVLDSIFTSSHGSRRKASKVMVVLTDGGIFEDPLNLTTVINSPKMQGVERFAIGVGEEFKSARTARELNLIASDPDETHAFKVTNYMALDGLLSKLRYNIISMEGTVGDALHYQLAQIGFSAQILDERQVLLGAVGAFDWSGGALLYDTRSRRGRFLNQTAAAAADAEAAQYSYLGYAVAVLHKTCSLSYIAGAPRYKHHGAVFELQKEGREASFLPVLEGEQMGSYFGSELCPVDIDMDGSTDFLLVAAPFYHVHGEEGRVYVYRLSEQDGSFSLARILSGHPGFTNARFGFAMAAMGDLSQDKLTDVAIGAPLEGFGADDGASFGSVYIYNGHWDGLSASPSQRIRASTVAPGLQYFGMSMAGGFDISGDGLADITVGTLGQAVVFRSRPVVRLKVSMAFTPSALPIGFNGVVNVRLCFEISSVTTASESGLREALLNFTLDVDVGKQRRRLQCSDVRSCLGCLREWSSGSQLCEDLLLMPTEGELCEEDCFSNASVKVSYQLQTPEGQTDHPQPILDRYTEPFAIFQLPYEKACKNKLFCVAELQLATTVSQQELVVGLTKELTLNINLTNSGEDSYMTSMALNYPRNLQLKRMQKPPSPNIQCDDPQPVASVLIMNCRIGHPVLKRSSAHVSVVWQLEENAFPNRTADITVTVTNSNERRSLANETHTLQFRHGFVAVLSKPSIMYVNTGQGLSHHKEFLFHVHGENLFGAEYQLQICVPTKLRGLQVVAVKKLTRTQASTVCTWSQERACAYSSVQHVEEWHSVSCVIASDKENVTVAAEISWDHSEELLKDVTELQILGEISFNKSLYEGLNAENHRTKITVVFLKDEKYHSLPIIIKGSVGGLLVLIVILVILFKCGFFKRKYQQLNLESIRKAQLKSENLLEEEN
T1 sequence (P26010 20-798, chain 2 of 2): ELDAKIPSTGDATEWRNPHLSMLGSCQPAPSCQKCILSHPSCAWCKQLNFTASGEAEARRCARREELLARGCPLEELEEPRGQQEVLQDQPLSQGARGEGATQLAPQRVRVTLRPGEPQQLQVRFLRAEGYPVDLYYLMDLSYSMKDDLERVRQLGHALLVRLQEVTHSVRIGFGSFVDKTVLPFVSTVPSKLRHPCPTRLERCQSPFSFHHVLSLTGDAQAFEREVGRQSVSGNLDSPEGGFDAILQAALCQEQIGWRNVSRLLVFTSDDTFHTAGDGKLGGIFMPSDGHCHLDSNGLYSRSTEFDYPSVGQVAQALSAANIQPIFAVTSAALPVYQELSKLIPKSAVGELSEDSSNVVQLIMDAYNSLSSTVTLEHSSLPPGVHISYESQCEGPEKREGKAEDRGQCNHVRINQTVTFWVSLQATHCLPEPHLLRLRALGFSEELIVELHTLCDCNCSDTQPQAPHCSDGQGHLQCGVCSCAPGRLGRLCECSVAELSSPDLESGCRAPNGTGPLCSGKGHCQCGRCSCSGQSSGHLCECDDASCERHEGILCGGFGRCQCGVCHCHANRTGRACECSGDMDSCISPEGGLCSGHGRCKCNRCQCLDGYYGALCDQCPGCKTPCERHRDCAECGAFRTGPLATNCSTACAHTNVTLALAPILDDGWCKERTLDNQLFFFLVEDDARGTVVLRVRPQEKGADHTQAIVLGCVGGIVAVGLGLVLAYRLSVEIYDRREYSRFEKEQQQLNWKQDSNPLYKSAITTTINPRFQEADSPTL
measuredAttribute: IC50 (nM)
Note: unit nM is implicit; provide only the numeric part.

binder Variant hu504.5, IgG (antibody, name in Kabat numbering, V domains shown) VH: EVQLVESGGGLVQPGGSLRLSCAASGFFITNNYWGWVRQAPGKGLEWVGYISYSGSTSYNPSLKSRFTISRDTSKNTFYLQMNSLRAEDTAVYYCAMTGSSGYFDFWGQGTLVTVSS VL: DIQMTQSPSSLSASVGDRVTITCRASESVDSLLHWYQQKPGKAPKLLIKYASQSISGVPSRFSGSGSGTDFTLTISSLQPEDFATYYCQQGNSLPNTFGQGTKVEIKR , IC50 observed: 4.77

In plain terms, Variant hu504.16, IgG (antibody, name in Kabat numbering, V domains shown) VH: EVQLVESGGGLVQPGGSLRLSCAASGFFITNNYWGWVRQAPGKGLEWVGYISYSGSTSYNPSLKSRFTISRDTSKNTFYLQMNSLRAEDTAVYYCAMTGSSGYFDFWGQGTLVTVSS VL: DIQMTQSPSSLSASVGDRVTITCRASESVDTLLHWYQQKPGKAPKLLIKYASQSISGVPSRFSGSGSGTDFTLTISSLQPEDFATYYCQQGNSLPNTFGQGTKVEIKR has a documented IC50 of 4.58

IC50 in this record for Rat Fib504 (antibody FIB504.64 produced by hybridoma ATCC HB-293) (antibody, V domains shown, Whole rat antibody in the cell adhesion assays; also called rat anti-mouse beta7 antibody) VH: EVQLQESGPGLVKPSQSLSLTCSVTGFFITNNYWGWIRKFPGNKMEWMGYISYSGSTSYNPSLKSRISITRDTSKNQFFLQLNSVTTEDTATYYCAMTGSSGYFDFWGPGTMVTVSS VL: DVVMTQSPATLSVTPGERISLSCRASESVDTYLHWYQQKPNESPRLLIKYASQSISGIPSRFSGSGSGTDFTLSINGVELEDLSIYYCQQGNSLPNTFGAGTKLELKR : 4.19

What the record says about Variant hu504.32, IgG (antibody, V domains shown, methionine at heavy chain position 94; also called hu504.32M; 504.32M) VH: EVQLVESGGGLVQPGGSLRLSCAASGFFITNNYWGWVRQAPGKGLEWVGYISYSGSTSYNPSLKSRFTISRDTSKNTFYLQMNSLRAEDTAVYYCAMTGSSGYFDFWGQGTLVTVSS VL: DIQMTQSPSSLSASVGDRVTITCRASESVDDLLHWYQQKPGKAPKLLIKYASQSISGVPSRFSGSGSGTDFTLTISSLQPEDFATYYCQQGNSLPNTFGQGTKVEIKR : IC50 is 3.47
